Reference source: paper PMC12667295

- Assay summary: Bidirectional transport across LLC-PK1 MOCK monolayer (Transwell)
- Recorded conditions: pig, LLC-PK1, pH 7.4
Metric: Papp at 2 h, 2 µM (×10⁻⁶ cm/s)
Record the value in ×10⁻⁶ cm/s, omitting the unit from your answer.

Could you tell me which Papp at 2 h, 2 µM is on file for C[C@H]1O[C@@H](O[C@H]2[C@@H](O)C[C@H](O[C@H]3[C@@H](O)C[C@H](O[C@H]4CC[C@@]5(C)[C@H](CC[C@@H]6[C@@H]5C[C@@H](O)[C@]5(C)[C@@H](C7=CC(=O)OC7)CC[C@]65O)C4)O[C@@H]3C)O[C@@H]2C)C[C@H](O)[C@@H]1O ?
2.17

---

- Assay summary: Bidirectional transport across LLC-PK1 MOCK monolayer (Transwell);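 note: compound quantified by LC-MS/MS in donor and receiver wells, efflux ratio as B-A over A-B Papp, recovery relative to initial donor amount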
- Recorded conditions: pig, pH 7.4, Recovery after correction of intracellular accumulation data, B-A, LLC-PK1 MOCK, cell lysate included, mean±SD, n=3
Metric: recovery at 2 h, 2 µM (%)
Write it as a number; the unit % goes unstated.

If you can, please state the reported recovery at 2 h, 2 µM value of COc1ccc2cc1Oc1ccc(cc1)C[C@H]1c3cc(c(OC)cc3CCN1C)Oc1c(OC)c(OC)cc3c1[C@H](C2)N(C)CC3 [Tetrandrine] .
93.5

---

- Assay summary: in vitro
- Recorded conditions: pig, pH 7.4
Metric: recovery at 2 h, 2 µM (%)
Output spec: scalar in %, unitless text.

Before answering, review these 3 worked examples.
Consider the compound Cc1ncc2n1-c1ccc(Cl)cc1C(c1ccccc1F)=NC2 [Midazolam] and give its measured recovery at 2 h, 2 µM.
99.6

Query: recovery at 2 h, 2 µM; subject: Nc1c2c(nc3ccccc13)CCCC2 [Tacrine]
114

Fill blank: measured recovery at 2 h, 2 µM of the compound COc1cccc(C2(O)CCCCC2CN(C)C)c1 (stereo not shown) [Tramadol] is ____.
113

// next item, recovery at 2 h, 2 µM requested
Entry NC(=O)C[S+]([O-])C(c1ccccc1)c1ccccc1 (stereo not shown) [Modafinil] has what recovery at 2 h, 2 µM?
106

---

- Test system: P-gp (human MDR1);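 note: 2 h incubation at 37 °C, receiver HBSS with 10 mM Hepes plus 1% BSA, LC-MS/MS of donor and receiver, recovery as receiver plus donor amount over initial donor amount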
- Assay summary: in vitro
- Recorded conditions: pig, LLC-PK1, pH 7.4
Metric: recovery at 2 h, 2 µM

# annotated cases, reported recovery at 2 h, 2 µM shown
For the molecule shown here, C=C[C@H]1C[N@@]2CC[C@H]1C[C@@H]2[C@@H](O)c1ccnc2ccc(OC)cc12 , give the reported recovery at 2 h, 2 µM.
98.7%

# input molecule: CC[C@]1(O)C[C@@H]2CN(CCc3c([nH]c4ccccc34)[C@@](C(=O)OC)(c3cc4c(cc3OC)N(C)[C@H]3[C@@](O)(C(=O)OC)[C@H](OC(C)=O)[C@]5(CC)C=CCN6CC[C@]43[C@@H]65)C2)C1 ; wanted: its recovery at 2 h, 2 µM
103%

Suppose we examine the molecule CN(Cc1cnc2nc(N)nc(N)c2n1)c1ccc(C(=O)N[C@@H](CCC(=O)O)C(=O)O)cc1 [Methotrexate] ; what recovery at 2 h, 2 µM value has been reported?
83.3%

Query: recovery at 2 h, 2 µM; subject: COc1ccc2c(c1)[C@]13CCCC[C@@H]1[C@H](C2)N(C)CC3
93.6%

I am curious: what recovery at 2 h, 2 µM value has been reported for COc1ccc2[nH]cc(CCNC(C)=O)c2c1 ?
93.1%

Return reported recovery at 2 h, 2 µM; argument: CC(C)NCC(O)COc1cccc2ccccc12 (stereo not drawn)
80.7%

Reported recovery at 2 h, 2 µM for COCCc1ccc(OCC(O)CNC(C)C)cc1 (stereo not drawn) : what is it?
116%

Find the recorded recovery at 2 h, 2 µM belonging to COc1ccc2[nH]c([S+]([O-])Cc3ncc(C)c(OC)c3C)nc2c1 (stereo not drawn) and report it.
113%

What does the record list as recovery at 2 h, 2 µM for COc1ccc2c(c1)c(CC(=O)O)c(C)n2C(=O)c1ccc(Cl)cc1 ?
99.7%

// query recovery at 2 h, 2 µM value for entry CC(C)(C)NCC(O)c1ccc(O)c(CO)c1 (stereo not drawn)
98.2%

Further cases:
Endpoint output: recovery at 2 h, 2 µM of Nc1c2c(nc3ccccc13)CCCC2 . Value?
105%

May I ask what recovery at 2 h, 2 µM has been recorded for CN/C(=N/CCSCc1nc[nH]c1C)NC#N ?
87.4%

Entry NC(=O)C[S+]([O-])C(c1ccccc1)c1ccccc1 (stereo not drawn) has what recovery at 2 h, 2 µM?
107%

// query recovery at 2 h, 2 µM value for entry COc1cccc(C2(O)CCCCC2CN(C)C)c1 (stereo not drawn)
109%

Given the entry Cc1cc(=O)n(-c2ccccc2)n1C [Antipyrine] , report its measured recovery at 2 h, 2 µM.
113%
